- TARGET_UNDER_TEST: IFN-gamma (Homo sapiens, UniProt P01579 P01579:24-161)
- Sequence (P01579 24-161, one chain of several): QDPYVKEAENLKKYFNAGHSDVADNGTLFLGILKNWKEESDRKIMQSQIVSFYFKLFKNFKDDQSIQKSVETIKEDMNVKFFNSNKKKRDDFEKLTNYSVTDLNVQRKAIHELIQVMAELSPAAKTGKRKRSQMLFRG
- EXPERIMENT_SUMMARY: inhibition; IFN-gamma/IFN-gamma-R1 ELISA day 1; day 2 100 nM
- CONDITION_CONTEXT: tags: R&D Systems, Minneapolis; chain copies: 2; label: 5'-32P
MEASURED_ENDPOINT: IC50 (nM)
Give bare numbers, in nM.

For reference, reported IC50 for ARC821 (AMX(216)_A7) (mixed, dRmY: deoxy A,G; 2'-OMe C,U (cDNA printed, T=U)) DNA: GGGAGAGGAGAGAACGTTCTACGGGGGTCGTGGGAGTAAGGGGGTGTAGGTAGGTCGATCGATCGATCATCGATG stands at 130
